TGT: SARS-COV-2 RBD extracellular domain expressed with a C-terminal mouse IgG2a Fc (SARS-CoV-2)
PROTOCOL_NOTES: Biacore SPR, mAb captured on anti-hFc, 25 C
MEASURE_NAME: koff (s⁻¹)

| BINDER | ENDPOINT_VALUE |
| --- | --- |
| mAb14285 (antibody, V domains shown) VH: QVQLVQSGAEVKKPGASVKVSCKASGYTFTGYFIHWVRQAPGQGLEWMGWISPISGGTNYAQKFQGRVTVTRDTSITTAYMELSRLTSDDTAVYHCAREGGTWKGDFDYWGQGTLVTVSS VL: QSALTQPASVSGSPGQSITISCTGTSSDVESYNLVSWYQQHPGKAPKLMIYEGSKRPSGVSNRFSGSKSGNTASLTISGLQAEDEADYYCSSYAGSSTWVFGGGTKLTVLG | 0.000502 |
| mAb14283 (antibody, V domains shown) VH: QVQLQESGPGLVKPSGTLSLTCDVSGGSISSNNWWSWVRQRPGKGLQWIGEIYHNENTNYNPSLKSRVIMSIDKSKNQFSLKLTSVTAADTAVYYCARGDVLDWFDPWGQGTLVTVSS VL: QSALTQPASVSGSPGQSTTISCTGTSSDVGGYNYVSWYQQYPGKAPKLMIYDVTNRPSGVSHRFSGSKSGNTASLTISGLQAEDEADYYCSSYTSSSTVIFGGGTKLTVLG | 8.14e-05 |
| mAb14230 (antibody, V domains shown) VH: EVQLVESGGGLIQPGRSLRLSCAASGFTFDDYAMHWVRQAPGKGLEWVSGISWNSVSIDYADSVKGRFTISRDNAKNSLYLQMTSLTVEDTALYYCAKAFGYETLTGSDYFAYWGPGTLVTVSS VL: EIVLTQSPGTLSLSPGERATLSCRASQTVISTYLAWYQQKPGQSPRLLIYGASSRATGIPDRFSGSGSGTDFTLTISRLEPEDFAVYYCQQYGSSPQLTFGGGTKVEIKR | 0.000286 |
